# assaySystem: fluorescently labelled recombinant rat PICK1 (DY549-SNAP-PICK1) (rat), Q9EP80
# Sequence (Q9EP80 whole entry): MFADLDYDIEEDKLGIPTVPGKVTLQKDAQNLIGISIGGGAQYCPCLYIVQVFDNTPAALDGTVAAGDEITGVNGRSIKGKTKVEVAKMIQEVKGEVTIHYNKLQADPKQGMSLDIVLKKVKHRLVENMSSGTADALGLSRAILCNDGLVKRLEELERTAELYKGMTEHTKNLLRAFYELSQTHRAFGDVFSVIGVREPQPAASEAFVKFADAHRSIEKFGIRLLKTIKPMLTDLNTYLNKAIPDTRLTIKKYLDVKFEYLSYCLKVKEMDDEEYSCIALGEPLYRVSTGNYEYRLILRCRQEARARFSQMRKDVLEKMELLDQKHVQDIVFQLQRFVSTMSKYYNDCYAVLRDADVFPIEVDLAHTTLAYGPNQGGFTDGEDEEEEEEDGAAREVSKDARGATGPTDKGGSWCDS
valueKind: IC50 (nM)
Write the value in nM as a bare number.

Given the entry TAT11-PEG4-(DATC5)2 (modifications not checked) peptide 1: HWLKV peptide 2: YGRKKRRQRRR , report its measured IC50.
7

The measurements presented in this section are drawn from patent US20250215052A1.
